Origin of measurements: patent US10670605B2

- tested target: ACAT1 C196 (P24752) (Homo sapiens)
- Sequence (P24752 34-427): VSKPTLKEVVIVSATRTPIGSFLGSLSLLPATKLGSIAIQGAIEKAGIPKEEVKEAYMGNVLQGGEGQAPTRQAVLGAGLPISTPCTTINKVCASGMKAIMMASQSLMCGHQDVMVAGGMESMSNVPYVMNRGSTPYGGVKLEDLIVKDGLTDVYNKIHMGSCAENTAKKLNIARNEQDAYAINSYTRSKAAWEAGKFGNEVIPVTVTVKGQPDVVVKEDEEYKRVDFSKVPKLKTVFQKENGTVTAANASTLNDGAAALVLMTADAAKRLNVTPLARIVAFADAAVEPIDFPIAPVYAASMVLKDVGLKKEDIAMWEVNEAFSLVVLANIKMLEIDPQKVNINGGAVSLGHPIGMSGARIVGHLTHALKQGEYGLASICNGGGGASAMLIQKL
- test summary: Competitive isoTOP-ABPP, cell lysates
- Assay type: binding
- experimental setup: 500 μm, in-vitro_ramos
recorded endpoint: isoTOP-ABPP reactivity profile ratio, P24752_C196
Answer using only a numeral; do not append any unit.

Qu. Which isoTOP-ABPP reactivity profile ratio, P24752_C196 reading was recorded for the compound C=CC(=O)N1CCC(Cc2ccccc2)CC1 [compound 53] ?
Ans. 0.9

Qu. Which isoTOP-ABPP reactivity profile ratio, P24752_C196 reading was recorded for the compound N#CC(=Cc1ccc(-c2ccccc2Cl)o1)C(N)=O [compound 42] ?
Ans. 0.8

Qu. Which isoTOP-ABPP reactivity profile ratio, P24752_C196 reading was recorded for the compound COc1cc(NC(=O)CCl)cc(OC)c1 [compound 43] ?
Ans. 2.3

Further cases:
Qu. Which isoTOP-ABPP reactivity profile ratio, P24752_C196 reading was recorded for the compound O=C(CCl)Nc1ccc(-c2ccccc2)cc1 [compound 52] ?
Ans. 1.5
